Quick reference: Functional restoration 3-hit TBI of the listed items.
System: mice (C57/BL6) after 3-hit repetitive TBI
Assay: 3-hit repetitive mild TBI in mice, elevated plus maze
Assay type: in vivo
Conditions: risk-taking behavior, HT13 chimera control = 1.0
Would you mind answering with just the numeric figure?

molecule	measured_endpoint	value
HT18: humanized cis-pThr231-tau mAb; heavy chain variable domain SEQ ID NO: 29, light chain variable domain SEQ ID NO: 20 (antibody, V domains shown) VH: QVQLVQSGAEVKKPGSSVKVSCKASGYTFTSYWIHWVRQAPGQGLEWMGVIDPSDSYTRYNQKFKGRVTITRDTSMSTAYTELSSLRSEDTAVYYCTTWEVDYWGQGTLVTVSS VL: DIQMTQSPSTLSASVGDRVTITCRSSQSLVHSDGNTYLHWYQQKPGKAPKLLIYKVSNRFSGVPSRFSGSGSGTEFTLTISSLQPDDFATYYCSQSTHVPWTFGQGTKLEIK	Functional restoration 3-hit TBI	1.0
HT10: humanized cis-pThr231-tau mAb; heavy chain variable domain SEQ ID NO: 26, light chain variable domain SEQ ID NO: 19 (antibody, V domains shown) VH: QVQLVQSGAEVKKPGASVKMSCKASGYTFTSYWIHWVKQRPGQGLEWIGVIDPSDSYTRYNQKFKGRATLTVDTSASTAYMELSSLRSEDTAVYYCTTWEVDYWGQGTLVTVSS VL: DVVMTQSPLSLPVTLGQPASISCRSSQSLVHSDGNTYLHWYLQKPGQSPQLLIYKVSNRFSGVPDRFSGSGSGTDFTLKISRVEAEDVGVYYCSQSTHVPWTFGGGTKVEIK	Functional restoration 3-hit TBI	1.2
HT1: humanized cis-pThr231-tau mAb; heavy chain variable domain SEQ ID NO: 25, light chain variable domain SEQ ID NO: 16 (antibody, V domains shown) VH: QVQLVQSGAELKKPGASVKMSCKASGYTFTSYWIHWVKQRPGQGLEWIGVIDPSDSYTRYNQKFKGRATLTVDTSASTAYMQLSSLTSEDSAVYYCTTWEVDYWGQGTTVTVSS VL: DVVMTQSPLSLPVTLGQPASISCRSSQSLVHSDGNTYLHWYLQKPGQSPQLLIYKVSNRFSGVPDRFSGSGSGTDFTLKISRVEAEDVGVYFCSQSTHVPWTFGGGTKVEIK	Functional restoration 3-hit TBI	1.5
HT3: humanized cis-pThr231-tau mAb; heavy chain variable domain SEQ ID NO: 27, light chain variable domain SEQ ID NO: 16 (antibody, V domains shown) VH: QVQLVQSGAEVKKPGASVKVSCKASGYTFTSYWIHWVRQRPGQGLEWIGVIDPSDSYTRYNQKFKGRVTLTVDTSASTAYMELSSLRSEDTAVYYCTTWEVDYWGQGTLVTVSS VL: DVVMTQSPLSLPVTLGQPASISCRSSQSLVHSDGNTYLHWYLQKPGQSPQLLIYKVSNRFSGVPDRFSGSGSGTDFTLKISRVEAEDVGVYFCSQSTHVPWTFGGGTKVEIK	Functional restoration 3-hit TBI	1.7

Below: the item to evaluate.
HT2: humanized cis-pThr231-tau mAb; heavy chain variable domain SEQ ID NO: 26, light chain variable domain SEQ ID NO: 16 (antibody, V domains shown) VH: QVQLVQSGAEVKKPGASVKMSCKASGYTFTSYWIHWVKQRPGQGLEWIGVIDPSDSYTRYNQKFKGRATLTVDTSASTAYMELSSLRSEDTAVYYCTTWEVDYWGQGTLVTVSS VL: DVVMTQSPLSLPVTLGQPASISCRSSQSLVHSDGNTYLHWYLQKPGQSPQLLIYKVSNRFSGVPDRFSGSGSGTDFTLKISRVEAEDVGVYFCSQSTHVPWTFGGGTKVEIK has a reported Functional restoration 3-hit TBI of 1.4

Every entry's value here was drawn from patent US20230348578A1.
